# Tested on: MDA-MB-435
# experimental-protocol: NCI tumour cell line growth inhibition, 48 h; in the data active = GI50 below about 0.43 µM; inactive = the rest
Possible outcomes: active, inactive

> print(dat)
                                   molecule  answer.label
1  CCOc1ccc2nc(S/C(=C/C=C(C#N)C#N)c3ccc(C)cc3)sc2c1      inactive
2  Cc1ccc(Cl)cc1Nc1nc(C(F)(F)F)ccc1C(=O)N1CCN(c2cccc(Cl)c2)CC1      inactive
3  COc1ccc2[nH]cc(-c3nc(-c4c[nH]c5ncccc45)cs3)c2c1      inactive
4  O=c1[nH]c(=O)n(C2CC(O)C(CO)O2)cc1CO (centres undefined)      inactive
5  COc1ccc(-c2oc(=O)ccc2-c2cc(OC)c(OC)c(OC)c2)cc1F      inactive
6  COc1ccccc1N1CCN(CCCn2c(=O)c3c(OC)nc(C)cc3c(=O)n2-c2ccccc2)CC1      inactive
7  C=CC(=O)N1CCC(C2CCNc3c(C(N)=O)c(-c4ccc(Oc5ccccc5)cc4)nn32)CC1 (centres undefined)      inactive
8  CC1(C)OCCn2c1nc1c(N3CCOCC3)nc(-c3cnc(N)nc3)nc12        active
9  C=Cc1c(C)c2cc3nc(cc4[nH]c(cc5nc(cc1[nH]2)C(C)=C5CCC(=O)O)c(CCC(=O)OC)c4C)[C@@]1(C)C3=CC=C(C(=O)OC)[C@H]1C(=O)OC        active
